Tested on: K4 kissing-loop RNA reporter
protocolDetails: apparent KD of K4 kissing-loop reporter; higher = weaker reporter binding
measurementContext: Eterna round: R107; input ligand: tryptophan 2.4 mM
Recorded measurements of apparent KD of K4 kissing-loop reporter, one per entry

sequenceChain: AAUUAAUACAGAAGGAGCGUGAAAUUAUCUAUUUUUUUUUUAGCUAGUGAUGUUAGCAUUUCACAGGUAGGUCGCUGUAUAUUUA [JR_SSArginiB_Sub009]
systemName: K4 kissing-loop RNA reporter
apparent KD of K4 kissing-loop reporter: 138 nM

sequenceChain: CCUAUCUCAUACGAUACCAGUCAAUAUAAACGAGUGAUGUUCGAAAUAAUAUGCCAUCACGACCCUUGGCAGCGUAUGGGAUAGG [Ex Theophylline B K4 6]
systemName: K4 kissing-loop RNA reporter
apparent KD of K4 kissing-loop reporter: 126 nM

sequenceChain: UUUUUAAUCGCAGAUACCAGUCCAGAAUGAAUACUAUAGUGAUGUUAUAAUAAAGGGAAGGACCCUUGGCAGCUGUAAUAUAUUU [AstrosSsTheB#5]
systemName: K4 kissing-loop RNA reporter;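 also: bound reporter read as fluorescence of individual clusters on recovered sequencing chips by microscopy, with normalized cluster intensities fitted with a binding model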
apparent KD of K4 kissing-loop reporter: 298 nM

State its apparent KD of K4 kissing-loop reporter for this sequence: CGUGCCCGGCCGGAUACCAGUGACCCGCUGGGAACCGCGGGCCCAGAGUGAUGUUCGGGACACCCUUGGCAGCCGCCUGGGCUGC [#2 Same State - Theophylline B Attempt #14 (HarryS)]
415 nM

Query apparent KD of K4 kissing-loop reporter for AUGCGCGCGGCGGCCGCCACUCGCAUGAGAGUGAUGUUCUCGCCGUGCCCGUAAGGGCGCGGUGUGAGGACCGGGCCGGGCUGCG [#2 Same State - Tryptophan B Attempt #21 (HarryS)]
131 nM

* * *

System: MS2 coat protein
protocolDetails: apparent KD of MS2 coat protein; higher = weaker reporter binding
measurementContext: Eterna round: R107; input ligand: theophylline 2 mM
endpointName: apparent KD of MS2 coat protein (nM)
Numbers only here, please. The scale is nM.

sequenceChain: ACAUGUUGGUGGUAUCUACGAAGGCGGAAACGAGGACCGGUACGGCCGCCACUCGGCGACAUGAGGAUCACCCAUGUGGUUAAAA [Exclusion - Tryptophan A (Freestyle 5)]
apparent KD of MS2 coat protein / nM: 254
--
sequenceChain: CUGCCAUGCAGGGAUACCAGUGCGUUCAGAACAUGAGGAUCACCCAUGUCGUCUGCCGAUCACCCUUGGCAGCUCUGCAUGGCAG [#05 Same State - Theophylline B]
apparent KD of MS2 coat protein / nM: 9.73
--
sequenceChain: CCUCAUGAACAUGAGGAUCACCCAUGUACACGAGGACCGGUACGGCCGCCACUCGAAUAACCUUAAUAUAAAUAAUAAUAAAAGG [5' end split MS2]
apparent KD of MS2 coat protein / nM: 19.1
--
sequenceChain: GUUGUAUACUCGGCCGCCACUGAGAGAGUCAUGUGAACAUGAGGAUCACCCAUGUAAUAUAUAUACAGGACCGGGAGUGUGGUAA [4.H]
apparent KD of MS2 coat protein / nM: 14.4

Next sequence, please.
Please indicate apparent KD of MS2 coat protein recorded for GGGCAAGAGGGAAGGAGCGUCAGCUGAGUCACAUGAGGAUCACCCAUGUCGCACAUAGUGUGACAGGUAGGUCGCCCUCUACCCU [Esceinan]
107

meta.source: the supplement of paper PMC9170038
